molecular target: Fyn (UniProt P06241); experiment: phosphorylation enrichment, bacterial display (enrichment ratio); higher = better substrate or ligand; peptides without Tyr show the background;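 further: 11-residue human phosphosite peptides and single-mutation variants displayed on the E. coli surface, counted by deep sequencing, each peptide's frequency after selection divided by its frequency in the unselected input library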;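 further: frequency after pTyr selection over input frequency; kinase dosed for 20-30% of maximal phosphorylation in three min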
Sequence (P06241 whole entry, looked up): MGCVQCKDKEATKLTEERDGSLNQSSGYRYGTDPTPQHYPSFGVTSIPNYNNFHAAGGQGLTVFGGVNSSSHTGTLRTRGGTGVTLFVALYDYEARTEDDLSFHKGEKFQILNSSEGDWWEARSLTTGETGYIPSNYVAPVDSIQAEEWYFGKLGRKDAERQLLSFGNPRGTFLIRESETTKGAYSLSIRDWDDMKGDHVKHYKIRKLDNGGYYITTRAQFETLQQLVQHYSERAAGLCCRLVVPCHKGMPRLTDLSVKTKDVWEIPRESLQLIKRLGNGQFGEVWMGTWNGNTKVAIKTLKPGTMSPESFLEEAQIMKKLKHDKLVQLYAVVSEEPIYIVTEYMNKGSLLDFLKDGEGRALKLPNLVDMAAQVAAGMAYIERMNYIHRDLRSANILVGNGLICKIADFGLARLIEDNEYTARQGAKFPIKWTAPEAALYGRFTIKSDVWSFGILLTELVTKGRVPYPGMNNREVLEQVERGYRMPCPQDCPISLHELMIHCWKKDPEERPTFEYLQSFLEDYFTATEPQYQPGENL
reported endpoint: phosphorylation enrichment
Lab note: jot down the number only; don't add units.

Record summary for DLRTGYSVPYG [TGM1_Y370_Y365D] : reported phosphorylation enrichment = 0.392

Reported phosphorylation enrichment for PVQAASQKVVA [HBB_Y131_Y131S] was 0.445

Given item SRPTQYSSFSC [SPEM2_Y104] , the value recorded as its phosphorylation enrichment is 0.627

Record summary for ILKPDYQPLAV [HYDIN_Y1072_I1077V] : reported phosphorylation enrichment = 0.48

phosphorylation enrichment recorded for this sequence, DLDTDYGSGYP [RNASEH2A_Y206] , is 0.852

phosphorylation enrichment in this record for HTLIKYTDGDQ [PUS7L_Y94] : 1.89

Notebook: IMICAYLLHRG [PTEN_Y138_V133I] , phosphorylation enrichment read as 0.709

AKNKDYMSIIR [GNE_Y197] yielded phosphorylation enrichment of 0.409

Reported phosphorylation enrichment ( GQKVAYGGTGD [ALDH3A1_Y305] ) = 0.349

Please fill in: phosphorylation enrichment reported for ADYYDYGRGLS [KHDRBS3_Y304_H306R] = 6.79

Note to self: phosphorylation enrichment recorded for YFVVEYRDQKP [MUC17_Y4332] was 0.786

GET /value?item= GGCQEYTGAPF [NAXD_Y85_YF] &field=phosphorylation enrichment returns 0.464

# phosphorylation enrichment (sequence: RISRKYKKVRF [F8_Y442_G439S] ) is 0.721

get_value(item= MEVGQYIFVKC [CYBB_Y324] , readout=phosphorylation enrichment) returns 0.599

phosphorylation enrichment reading for IDAVCYFRMEN [NPHS2_Y194_I192V_YF] : 0.653

// GREAEYSDKHG [EPHB4_Y574] : phosphorylation enrichment value = 0.773

Documented phosphorylation enrichment of KERNQYGGVMV [MMP21_Y347_E349G] : 0.556

Record LGSWTYPKTVS [ROS1_Y144_T145P] . Reported phosphorylation enrichment: 0.741

// sample WNRDKYAATTT [TRIM39_Y439_G436R] , its phosphorylation enrichment was 0.358

FGSLLYKYAFK [FANCD2_Y458] yielded phosphorylation enrichment of 0.366

// phosphorylation enrichment lookup, sequence = RSSPVYVGRVV [TGM2_Y219] , result: 1.42

Just so you know, measured phosphorylation enrichment for RDSQIYAVDYE [MRPS34_Y34_L33I] came out at 7.43

Lab note: measured phosphorylation enrichment of ETDPRYFDEEF [AKT1_Y437_T435P] was 0.565

GET /value?item= HLLRIYYDITD [MMP27_Y307_W304L] &field=phosphorylation enrichment returns 1.07
